systemTested: human mAChR M1 (Homo sapiens)
Sequence (P11229 1-460): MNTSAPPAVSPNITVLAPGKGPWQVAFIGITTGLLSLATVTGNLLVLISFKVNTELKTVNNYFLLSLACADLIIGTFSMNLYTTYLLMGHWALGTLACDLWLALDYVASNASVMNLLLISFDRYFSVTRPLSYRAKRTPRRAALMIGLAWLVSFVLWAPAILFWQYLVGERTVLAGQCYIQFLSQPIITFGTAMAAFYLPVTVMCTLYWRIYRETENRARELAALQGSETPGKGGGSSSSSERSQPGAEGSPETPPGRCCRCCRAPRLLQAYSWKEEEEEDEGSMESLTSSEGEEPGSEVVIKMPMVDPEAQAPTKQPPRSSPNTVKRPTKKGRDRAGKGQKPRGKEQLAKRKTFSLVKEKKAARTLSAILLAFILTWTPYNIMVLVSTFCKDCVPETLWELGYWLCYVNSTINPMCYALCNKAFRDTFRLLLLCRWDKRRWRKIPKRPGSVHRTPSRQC
procedureText: mAChR M1 cell-based functional assay (calcium mobilization), PAM mode: increase in the EC20 acetylcholine response
attributeMeasured: EC50 (nM)

1: [2H]C1([2H])c2ncccc2C(=O)N1Cc1c(F)cc(-c2ccc(OC3CN(C(=O)OC(C)(C)C)C3)c3nn(C)cc23)cc1F
2: [2H]C([2H])([2H])Oc1cnc2c(c1)C(=O)N(Cc1ccc(-c3ccc4nn(C)cc4c3)cc1F)C2([2H])[2H]
3: [2H]C1([2H])c2ncccc2C(=O)N1Cc1ccc(-c2ccc(OC[C@@H](C)OC)c3nn(C)cc23)cc1F
4: [2H]C1([2H])c2ncccc2C(=O)N1Cc1c(F)cc(-c2cc(F)cc3nn(C([2H])([2H])[2H])cc23)cc1F
Prompt: Rank descending by EC50. Write the labels out in the order the request specifies.
Response: 1, 3, 4, 2

I: [2H]C1([2H])c2ncccc2C(=O)N1Cc1c(C)cc(-c2ccc(OC)c3nn(C)cc23)cc1F
II: [2H]C1([2H])c2ncccc2C(=O)N1Cc1ccc(-c2ccc(O[C@@H]3CCOC3)c3nn(C)cc23)cc1F
Prompt: EC50 comparison. Which is larger, I or II ? Write down the label of the entry you select.
Response: II
(II: 694 nM, I: 198 nM)

1: [2H]C1([2H])c2ncccc2C(=O)N1Cc1ccc(-c2ccc(O[C@H]3CCOC3)c3nn(C)cc23)cc1F
2: [2H]C1([2H])c2ncccc2C(=O)N1Cc1c(F)cc(-c2cc(F)c(F)c3nn(C([2H])([2H])[2H])cc23)cc1F
Prompt: I would appreciate it if you could say which entry, 1 or 2 , has the lower EC50 value. API: response body contains the label of the selected item.
Response: 2
(2: 140 nM, 1: 751 nM)

A: [2H]C1([2H])c2ncccc2C(=O)N1Cc1c(F)cc(-c2ccc(C)c3nn(C)cc23)cc1Cl
B: [2H]C1([2H])c2ncccc2C(=O)N1Cc1c(F)cc(-c2ccc(O[C@H]3CCOC3)c3nn(C)cc23)cc1F
C: [2H]C1([2H])c2ncccc2C(=O)N1Cc1c(F)cc(-c2ccc(OCCOC(C)C)c3nn(C)cc23)cc1F
Prompt: List the 3 entries from lowest EC50 to highest EC50 value. Write the labels in rank order as requested.
Response: B, A, C

----------
systemTested: human mAChR M1 (Homo sapiens, UniProt P11229)
procedureText: mAChR M1 cell-based functional assay (calcium mobilization), agonist mode: compound alone, Emax relative to acetylcholine maximum
runParameters: human mAChR M1
attributeMeasured: Agonist Activity Human M1 EC50

Worked cases, answers included:
1. [2H]C1([2H])c2ncccc2C(=O)N1Cc1c(F)cc(-c2cccc3c2cnn3C(C)C)cc1F = Inactive
2. [2H]C1([2H])c2ncccc2C(=O)N1Cc1c(F)cc(-c2ccc(OC(F)F)c3nn(C)cc23)cc1F = Inactive
3. [2H]C1([2H])c2ncccc2C(=O)N1Cc1c(F)cc(-c2ccc(C)c3nn(C([2H])([2H])[2H])cc23)cc1F = Inactive
4. [2H]C1([2H])c2ncccc2C(=O)N1Cc1c(F)cc(-c2cc(F)c(Cl)c3c2cnn3C([2H])([2H])[2H])cc1F = Inactive
5. [2H]C1([2H])c2ncccc2C(=O)N1Cc1ccc(-c2cc(C)c3nn(C)cc3c2)cc1F = Inactive

Prompt: Endpoint output: Agonist Activity Human M1 EC50 of "[2H]C1([2H])c2ncccc2C(=O)N1Cc1c(F)cc(-c2ccc(C(F)(F)F)c3nn(C([2H])([2H])[2H])cc23)cc1F" . Value?
Response: Inactive

Prompt: Query: Agonist Activity Human M1 EC50; subject: "[2H]C1([2H])c2ncccc2C(=O)N1Cc1c(F)cc(-c2cc(C(F)F)cc3nn(C)cc23)cc1F"
Response: Inactive

----------
systemTested: UniProt:P11229
procedureText: mAChR M1 cell-based functional assay (calcium mobilization), PAM mode: increase in the EC20 acetylcholine response
Protocol: Chinese hamster ovary (CHO-K1) cells stably expressing rat (r)M1 were purchased from the American Type Culture Collection and cultured according to their indicated protocol. […] Calcium flux was measured using the Functional Drug Screening System (FDSS) 6000 (Hamamatsu Corporation, Tokyo, Japan) as an increase in the fluorescent static ratio. […] Agonist activity was analyzed as a concentration-dependent increase in calcium mobilization upon compound addition. […]
attributeMeasured: EC50 (nM)

A selection of reference data follows.
1. [2H]C1([2H])c2ncccc2C(=O)N1Cc1c(F)cc(-c2cc3cn(C)nc3cc2F)cc1F = 1060
2. [2H]C1([2H])c2ncccc2C(=O)N1Cc1c(F)cc(-c2cccc3nn(C4COC4)cc23)cc1F = 848

I: [2H]C1([2H])c2ncccc2C(=O)N1Cc1c(C)cc(-c2cccc3nn(C)cc23)cc1F (single isomer, unassigned)
II: [2H]C1([2H])c2ncccc2C(=O)N1Cc1c(F)cc(-c2cccc3nn(C(F)F)cc23)cc1F
Prompt: Please choose the item with the lower EC50 value from this pair: I and II Label of pick, please.
Response: II
(II: 332 nM, I: 2480 nM)

----------
systemTested: human mAChR M1 (Homo sapiens, UniProt P11229)
procedureText: mAChR M1 cell-based functional assay (calcium mobilization), agonist mode: compound alone, Emax relative to acetylcholine maximum
runParameters: human mAChR M1
pEC50: −log10 of the molar value.
attributeMeasured: pEC50

These solved cases illustrate the format of a correct answer.
1) [2H]C1([2H])c2ncccc2C(=O)N1Cc1c(F)cc(-c2ccc(O)c3nn(C([2H])([2H])[2H])cc23)cc1F = 5.10
2) [2H]C1([2H])c2ncccc2C(=O)N1Cc1c(F)cc(-c2ccc(OC3CC3)c3nn(C)cc23)cc1F = 5.08
3) [2H]C1([2H])c2ncccc2C(=O)N1Cc1c(F)cc(-c2ccc(OC(C)C)c3nn(C)cc23)cc1F = 5.08

A: [2H]C1([2H])c2ncccc2C(=O)N1Cc1c(C)cc(-c2ccc(F)c3nn(C)cc23)cc1F
B: [2H]C1([2H])c2ncccc2C(=O)N1Cc1ccc(-c2ccc(OCCOC)c3nn(C)cc23)cc1F
Prompt: Consider entries A and B . Which has the numerically lower pEC50? Field: selected label. Fill in the label of the entry you choose.
Response: B
(B: 5.03, A: 5.25)

----------
systemTested: human mAChR M1 (Homo sapiens, UniProt P11229)
procedureText: mAChR M1 cell-based functional assay (calcium mobilization), PAM mode: increase in the EC20 acetylcholine response
attributeMeasured: Emax (%)

Answered examples (5):
1. [2H]C1([2H])c2ncccc2C(=O)N1Cc1ccc(-c2ccc(OCC3CCCO3)c3nn(C)cc23)cc1F (stereo not shown) = 79
2. [2H]C1([2H])c2ncccc2C(=O)N1Cc1ccc(-c2cccc3nncn23)cc1 = 44
3. [2H]C([2H])([2H])Oc1cnc2c(c1)C(=O)N(Cc1c(F)cc(-c3ccc(OC)c4nn(C)cc34)cc1F)C2([2H])[2H] = 79
4. [2H]C1([2H])c2ncccc2C(=O)N1Cc1c(F)cc(-c2ccc(C(F)(F)F)c3nn(C)cc23)cc1OCC(C)C = 83
5. [2H]C1([2H])c2ncccc2C(=O)N1Cc1c(F)cc(-c2ccc(C)c3nn(C)cc23)cc1C1CC1 = 70

P: [2H]C1([2H])c2ncccc2C(=O)N1Cc1c(F)cc(-c2ccc(OC3CN(CCCC)C3)c3nn(C)cc23)cc1F
Q: [2H]C1([2H])c2ncccc2C(=O)N1Cc1c(F)cc(-c2cccc3nn(C([2H])([2H])[2H])c(F)c23)cc1C1CC1
Prompt: Between P and Q , which one shows the larger Emax value? Select an item and report its label.
Response: P
(P: 87%, Q: 58%)

----------
systemTested: UniProt P11229
procedureText: mAChR M1 cell-based functional assay (calcium mobilization), PAM mode: increase in the EC20 acetylcholine response
pEC50: −log10 of the molar value.
attributeMeasured: pEC50

Example entries begin here.
1. [2H]C([2H])([2H])Oc1cc(-c2cc(F)c(CN3C(=O)c4cccnc4C3([2H])[2H])c(F)c2)c2cn(C([2H])([2H])[2H])nc2c1 = 6.09
2. [2H]C1([2H])c2ncccc2C(=O)N1Cc1c(F)cc(-c2cc(C)cc3nn(C)cc23)cc1F = 6.23
3. [2H]C1([2H])c2ncccc2C(=O)N1Cc1c(F)cc(-c2ccc(OC(C)C)c3nn(C)cc23)cc1F = 6.54

I: [2H]C([2H])([2H])Oc1ccc(-c2cc(F)c(CN3C(=O)c4cccnc4C3([2H])[2H])c(F)c2)c2cnn(C([2H])([2H])[2H])c12
II: [2H]C1([2H])c2ncccc2C(=O)N1Cc1ccc(-c2cccc3nn(C([2H])([2H])[2H])cc23)cc1F
III: [2H]C1([2H])c2ncccc2C(=O)N1Cc1c(F)cc(-c2ccc(OC3COC3)c3nn(C)cc23)cc1F
Prompt: Thanks in advance: please rank these 3 entries by pEC50, highest to lowest. Respond with an ordered listing of the labels, as requested.
Response: III, II, I
(III: 6.73, II: 6.49, I: 5.85)
